For each entry below, report its selectivity ratio value.
Test: Selectivity index, ratio of IC50 for rat L6 cells to IC50 for Leishmania donovani MHOM-ET-67/L82
Type: toxicity, cell-based
Conditions: L6 cells versus Leishmania donovani MHOM-ET-67/L82, read-out: Ratio IC50
One number for each entry.

{"columns": ["item.smiles", "metric", "assay.result"],
 "data": [
  ["COc1cc2nc(Cl)nc(NCCCCn3ccnc3[N+](=O)[O-])c2cc1OC", "selectivity ratio", 5]
]}

Let's switch to this molecule now.
According to the records, this molecule O=[N+]([O-])c1nccn1CCCCNc1nc(-c2ccccc2)nc2ccccc12 displays selectivity ratio of 5
